Test: Organ biodistribution of [^68Ga]Ga-DOTATATE by ex vivo gamma counting
Format: in vivo, New Zealand White rabbits
Conditions: male, New Zealand White, rabbit, thoracic aorta, iv, 190 MBq, total radioactivity, male athero4mo rabbits, 200 min after tracer injection, median (IQR), N = 9; read-out: Tissue radioactivity, thoracic aorta

MOLECULE: C[C@@H](O)[C@H](NC(=O)[C@@H]1CSSC[C@H](NC(=O)[C@@H](Cc2ccccc2)NC(=O)CN2CCN(CC(=O)O)CCN(CC(=O)O)CCN(CC(=O)O)CC2)C(=O)N[C@@H](Cc2ccc(O)cc2)C(=O)N[C@H](Cc2c[nH]c3ccccc23)C(=O)N[C@@H](CCCCN)C(=O)N[C@@H]([C@@H](C)O)C(=O)N1)C(=O)O [[^68Ga]Ga-DOTATATE, metal not drawn]
UNIT_DESCRIPTOR: %ID/g
tissue uptake at 200 min: 0.015

====

Assay: In vivo PET/CT of vascular inflammation in atherosclerotic mice
Settings: female, mouse, ascending aorta, iv, 5.55 MBq, total radioactivity, healthy C57Bl/6 control mice, tracer circulated 60 min, median, N = 4, read-out: SUVmax ascending aorta
EXPERIMENTAL_READOUT: SUV at 1 h (SUV)

COMPOUND: C[C@@H](O)[C@H](NC(=O)[C@@H]1CSSC[C@H](NC(=O)[C@@H](Cc2ccccc2)NC(=O)CN2CCN(CC(=O)O)CCN(CC(=O)O)CCN(CC(=O)O)CC2)C(=O)N[C@@H](Cc2ccc(O)cc2)C(=O)N[C@H](Cc2c[nH]c3ccccc23)C(=O)N[C@@H](CCCCN)C(=O)N[C@@H]([C@@H](C)O)C(=O)N1)C(=O)O [[^64Cu]Cu-DOTATATE, metal not drawn]
MEASUREMENT: 0.5

====

Assay: Timed organ biodistribution of [^64Cu]Cu-DOTATATE by ex vivo gamma counting
Type: in vivo, mice
Conditions: mouse, adrenal gland, intravenous, 1.85 MBq, total radioactivity; female Apoe^-/- mice 12 weeks on Western Diet, 30 min after injection, median (IQR), N=3-8; read-out: Tissue radioactivity, adrenal gland

MOLECULE: C[C@@H](O)[C@H](NC(=O)[C@@H]1CSSC[C@H](NC(=O)[C@@H](Cc2ccccc2)NC(=O)CN2CCN(CC(=O)O)CCN(CC(=O)O)CCN(CC(=O)O)CC2)C(=O)N[C@@H](Cc2ccc(O)cc2)C(=O)N[C@H](Cc2c[nH]c3ccccc23)C(=O)N[C@@H](CCCCN)C(=O)N[C@@H]([C@@H](C)O)C(=O)N1)C(=O)O [[^64Cu]Cu-DOTATATE, metal not drawn]
tissue uptake at 0.5 h: 1.5 %ID/g

====

Experiment: Timed organ biodistribution of [^64Cu]Cu-DOTATATE by ex vivo gamma counting
Type: in vivo, mice
Conditions: mouse, adrenal gland, intravenous, 1.85 MBq, total radioactivity; female Apoe^-/- mice 12 weeks on Western Diet, 15 min after injection, median (IQR), N=3-8; read-out: Tissue radioactivity, adrenal gland
EXPERIMENTAL_READOUT: tissue uptake at 0.25 h (%ID/g)

COMPOUND: C[C@@H](O)[C@H](NC(=O)[C@@H]1CSSC[C@H](NC(=O)[C@@H](Cc2ccccc2)NC(=O)CN2CCN(CC(=O)O)CCN(CC(=O)O)CCN(CC(=O)O)CC2)C(=O)N[C@@H](Cc2ccc(O)cc2)C(=O)N[C@H](Cc2c[nH]c3ccccc23)C(=O)N[C@@H](CCCCN)C(=O)N[C@@H]([C@@H](C)O)C(=O)N1)C(=O)O [[^64Cu]Cu-DOTATATE, metal not drawn]
EXPERIMENTAL_READOUT: tissue uptake at 0.25 h
UNIT_DESCRIPTOR: %ID/g
MEASUREMENT: 1.4
